- Tested on: Candida tropicalis
- procedure details: Antimicrobial activity against Candida tropicalis isolate 33 after 48 hrs by microdilution broth method
- Format: functional
- condition set: isolate 33, 48 h
endpoint: MIC

| compound | MIC |
| --- | --- |
| OC(Cn1cncn1)(Cn1cncn1)c1ccc(F)cc1F [FLUCONAZOLE] | 1 µg/mL |
| Cc1cc(-c2nn(C)c(C)c2/[N+]([O-])=N/C#N)nn1C | > 128 µg/mL |
| C[C@@H](c1ncncc1F)[C@](O)(Cn1cncn1)c1ccc(F)cc1F [VORICONAZOLE] | < 0.008 µg/mL |
| Cc1nn(C)c(C)c1/[N+]([O-])=N/C#N | 64 µg/mL |
| Cc1c(/[N+]([O-])=N/C#N)c(-c2ccco2)nn1C | 128 µg/mL |
| Cc1c(/[N+]([O-])=N/C#N)c(-c2cccs2)nn1C | 8 µg/mL |
| Cc1ccc(S(=O)(=O)/N=[N+](\[O-])c2c(-c3cccs3)nn(C)c2C)cc1 | > 128 µg/mL |
| C[C@@H]1[C@H](O)[C@@H](C)/C=C/C=C/C=C/C=C/C=C/C=C/C=C/[C@H](O[C@@H]2O[C@H](C)[C@@H](O)[C@H](N)[C@@H]2O)C[C@@H]2O[C@](O)(C[C@@H](O)C[C@@H](O)[C@H](O)CC[C@@H](O)C[C@@H](O)CC(=O)O[C@H]1C)C[C@H](O)[C@H]2C(=O)O [AMPHOTERICIN B] | 1 µg/mL |

Parameter requested: MIC. Apply to each item below.
1. Cc1cc(-c2nn(C)c(C)c2/[N+]([O-])=N/C#N)no1
2. Cc1cc(-c2nn(C)c(C)c2/[N+]([O-])=N/C#N)on1
3. Cc1nn(C)c(-c2cccs2)c1/[N+]([O-])=N/C#N

# output
> 128 µg/mL
128 µg/mL
32 µg/mL

Parameter requested: MIC. Apply to each item below.
1. CC[C@@H]([C@H](C)O)n1ncn(-c2ccc(N3CCN(c4ccc(OC[C@@H]5CO[C@@](Cn6cncn6)(c6ccc(F)cc6F)C5)cc4)CC3)cc2)c1=O [POSACONAZOLE]
2. Cc1cc(-c2c(/[N+]([O-])=N/C#N)c(C)nn2C)no1
3. Cc1c(/[N+]([O-])=N/C#N)c(-c2ccccn2)nn1C
4. Cc1c(/[N+]([O-])=N/C(N)=O)c(-c2cccs2)nn1C

# output
["0.12 µg/mL", "> 128 µg/mL", "128 µg/mL", "> 128 µg/mL"]
